# SYSTEM TESTED: UniProt Q01959
# Sequence (Q01959 whole entry): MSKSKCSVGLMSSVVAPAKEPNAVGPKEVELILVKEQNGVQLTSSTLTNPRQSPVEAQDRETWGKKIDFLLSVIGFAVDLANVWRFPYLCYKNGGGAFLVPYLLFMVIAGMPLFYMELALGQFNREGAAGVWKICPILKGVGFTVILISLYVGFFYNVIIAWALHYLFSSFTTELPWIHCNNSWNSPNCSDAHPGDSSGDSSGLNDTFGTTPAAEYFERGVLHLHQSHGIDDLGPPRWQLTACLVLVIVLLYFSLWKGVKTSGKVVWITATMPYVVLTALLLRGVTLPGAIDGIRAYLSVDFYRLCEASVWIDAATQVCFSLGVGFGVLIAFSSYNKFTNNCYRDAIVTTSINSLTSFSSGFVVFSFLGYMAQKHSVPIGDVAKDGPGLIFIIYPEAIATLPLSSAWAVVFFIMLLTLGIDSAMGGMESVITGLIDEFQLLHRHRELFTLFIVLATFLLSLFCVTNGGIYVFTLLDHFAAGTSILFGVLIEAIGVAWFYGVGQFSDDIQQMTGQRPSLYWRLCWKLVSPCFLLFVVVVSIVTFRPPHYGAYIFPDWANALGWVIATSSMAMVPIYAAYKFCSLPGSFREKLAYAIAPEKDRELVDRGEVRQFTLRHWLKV
PROPERTY LABEL: Ki (µM)
Report as a plain number; the unit µM is understood.

State its Ki: C[C@@H](CN1CCC(Cc2ccccc2)CC1)[C@@H](O)c1ccc(O)cc1.Cl (relative stereo)
3.46

====

# SYSTEM TESTED: hSERT (Homo sapiens, UniProt P31645)
# Sequence (P31645 whole entry): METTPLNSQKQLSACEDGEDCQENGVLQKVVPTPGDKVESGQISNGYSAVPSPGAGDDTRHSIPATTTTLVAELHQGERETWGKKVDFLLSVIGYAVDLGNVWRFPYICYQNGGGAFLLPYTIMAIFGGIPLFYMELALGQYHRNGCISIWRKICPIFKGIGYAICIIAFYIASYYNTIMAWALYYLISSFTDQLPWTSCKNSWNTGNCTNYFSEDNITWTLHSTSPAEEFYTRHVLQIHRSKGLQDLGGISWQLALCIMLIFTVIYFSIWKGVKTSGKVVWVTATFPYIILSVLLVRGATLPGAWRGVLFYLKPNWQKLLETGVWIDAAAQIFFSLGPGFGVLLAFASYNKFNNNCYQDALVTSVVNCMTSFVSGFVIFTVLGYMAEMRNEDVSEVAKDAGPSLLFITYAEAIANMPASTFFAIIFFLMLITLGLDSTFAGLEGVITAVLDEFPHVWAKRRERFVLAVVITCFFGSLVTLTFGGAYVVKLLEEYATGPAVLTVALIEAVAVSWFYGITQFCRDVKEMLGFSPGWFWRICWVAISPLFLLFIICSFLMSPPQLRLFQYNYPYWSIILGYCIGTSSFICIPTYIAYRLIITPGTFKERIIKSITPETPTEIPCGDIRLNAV
PROPERTY LABEL: pKi
Conceptually, pKi converts a concentration in mol/L into minus its log10.

Consider the compound C[C@@H](CN1CCC(Cc2ccccc2)CC1)[C@@H](O)c1ccc(O)cc1.Cl (relative stereo) tested on hSERT (Homo sapiens, UniProt P31645); state its pKi.
6.17

From: paper PMC2843925
